# credit: ChEMBL document CHEMBL4765237

Target: Serine/threonine-protein kinase TAO2 (Homo sapiens, UniProt Q9UL54)
Sequence (Q9UL54 whole entry): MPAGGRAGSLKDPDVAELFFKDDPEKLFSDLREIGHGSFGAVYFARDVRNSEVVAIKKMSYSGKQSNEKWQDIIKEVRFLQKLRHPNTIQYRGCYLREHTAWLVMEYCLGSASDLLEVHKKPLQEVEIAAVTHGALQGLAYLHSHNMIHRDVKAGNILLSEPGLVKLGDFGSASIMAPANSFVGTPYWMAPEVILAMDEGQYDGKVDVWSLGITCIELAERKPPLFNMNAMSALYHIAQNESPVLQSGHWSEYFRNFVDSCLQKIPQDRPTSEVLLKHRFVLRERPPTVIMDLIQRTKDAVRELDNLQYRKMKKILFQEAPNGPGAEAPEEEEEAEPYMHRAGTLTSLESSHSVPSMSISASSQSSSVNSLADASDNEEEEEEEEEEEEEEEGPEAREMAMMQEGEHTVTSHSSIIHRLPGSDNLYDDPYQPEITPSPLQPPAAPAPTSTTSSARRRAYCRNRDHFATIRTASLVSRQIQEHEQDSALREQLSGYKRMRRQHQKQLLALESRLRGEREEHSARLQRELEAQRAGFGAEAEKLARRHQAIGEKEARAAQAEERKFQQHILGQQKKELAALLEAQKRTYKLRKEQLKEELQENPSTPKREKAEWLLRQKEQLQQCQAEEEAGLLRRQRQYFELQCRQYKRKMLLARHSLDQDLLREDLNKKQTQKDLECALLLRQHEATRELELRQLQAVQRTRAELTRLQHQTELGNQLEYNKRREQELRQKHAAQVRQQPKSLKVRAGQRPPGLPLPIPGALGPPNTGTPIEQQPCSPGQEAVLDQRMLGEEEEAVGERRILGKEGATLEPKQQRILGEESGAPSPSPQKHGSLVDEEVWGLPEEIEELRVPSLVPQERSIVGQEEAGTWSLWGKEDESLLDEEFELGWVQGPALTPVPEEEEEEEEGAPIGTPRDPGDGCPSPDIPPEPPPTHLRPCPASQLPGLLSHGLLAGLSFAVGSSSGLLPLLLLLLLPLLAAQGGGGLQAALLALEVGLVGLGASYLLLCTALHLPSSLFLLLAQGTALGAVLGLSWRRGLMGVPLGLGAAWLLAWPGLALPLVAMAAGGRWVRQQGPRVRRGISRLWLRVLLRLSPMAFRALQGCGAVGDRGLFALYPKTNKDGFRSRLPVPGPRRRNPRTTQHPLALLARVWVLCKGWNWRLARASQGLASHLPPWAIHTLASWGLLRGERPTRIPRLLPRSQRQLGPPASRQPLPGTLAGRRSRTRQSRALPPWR
Assay: Inhibition of recombinant human TAO2 (1 to 320 residues) using myelin basic protein as substrate incubated for 40 mins in presence of [gamma33P]ATP by scintillation counting based radiometry assay
assay-readout: pIC50
Field pIC50 (float): negative decimal logarithm of the concentration in molar.

Give a short answer stating reported pIC50 for `CC(C)(C)c1cc(NC(=O)Nc2ccc(Nc3ncnc4c3OCCCN4)cc2)no1` . 6.04
